Listed compounds paired with reported IC50
# Test system: wild type L. donovani LdAG83 promastigotes
# experiment: Leishmania cell viability (MTS) assay
# Type: cell-based, Leishmania donovani
# test-conditions: Leishmania donovani, 72 h, read-out: IC50(μM) of synthetic flavonoid, LdAG83
Please give a number only; it is taken to be in µM.

Example compounds with recorded IC50:
O=c1cc(-c2ccc(OCCOCCOCCOCCOCCOCCOCCOCCOCCOc3ccc(-c4cc(=O)c5c(O)cc(O)cc5o4)cc3)cc2)oc2cc(O)cc(O)c12	10
O=c1cc(-c2ccc(OCCOCCOCCOCCOCCOCCOc3ccc(-c4cc(=O)c5c(O)cc(O)cc5o4)cc3)cc2)oc2cc(O)cc(O)c12	11
O=c1cc(-c2ccc(OCCOCCOCCOc3ccc(-c4cc(=O)c5c(O)cc(O)cc5o4)cc3)cc2)oc2cc(O)cc(O)c12	8

Q. Item "O=c1cc(-c2ccc(OCCOCCOCCOCCOCCOc3ccc(-c4cc(=O)c5c(O)cc(O)cc5o4)cc3)cc2)oc2cc(O)cc(O)c12" with wild type L. donovani LdAG83 promastigotes - IC50?
A. 30

Q. Item "O=c1cc(-c2ccc(OCCOCCOCCOCCOCCOCCOCCOCCOc3ccc(-c4cc(=O)c5c(O)cc(O)cc5o4)cc3)cc2)oc2cc(O)cc(O)c12" with wild type L. donovani LdAG83 promastigotes - IC50?
A. 12

Q. Item "O=c1cc(-c2ccc(OCCOc3ccc(-c4cc(=O)c5c(O)cc(O)cc5o4)cc3)cc2)oc2cc(O)cc(O)c12" with wild type L. donovani LdAG83 promastigotes - IC50?
A. 95

Sourced from patent US8710097B2
